Taken from patent US9890152B2.

biological target: EGFR del746-750 T790M (Homo sapiens, UniProt P00533, DEL746-750/T790M); assay: EGFR del746-750 T790M biochemical assay (Caliper mobility shift); details: 5 μM ATP, 30 min, room temperature; apparent Ki (Morrison) converted by Cheng-Prusoff, Km of ATP 2.1 μM; read-out: EGFR(T790M/d746-750) Ki
Sequence (P00533 with tags, fused parts or gaps DEL746-750/T790M limits assumed): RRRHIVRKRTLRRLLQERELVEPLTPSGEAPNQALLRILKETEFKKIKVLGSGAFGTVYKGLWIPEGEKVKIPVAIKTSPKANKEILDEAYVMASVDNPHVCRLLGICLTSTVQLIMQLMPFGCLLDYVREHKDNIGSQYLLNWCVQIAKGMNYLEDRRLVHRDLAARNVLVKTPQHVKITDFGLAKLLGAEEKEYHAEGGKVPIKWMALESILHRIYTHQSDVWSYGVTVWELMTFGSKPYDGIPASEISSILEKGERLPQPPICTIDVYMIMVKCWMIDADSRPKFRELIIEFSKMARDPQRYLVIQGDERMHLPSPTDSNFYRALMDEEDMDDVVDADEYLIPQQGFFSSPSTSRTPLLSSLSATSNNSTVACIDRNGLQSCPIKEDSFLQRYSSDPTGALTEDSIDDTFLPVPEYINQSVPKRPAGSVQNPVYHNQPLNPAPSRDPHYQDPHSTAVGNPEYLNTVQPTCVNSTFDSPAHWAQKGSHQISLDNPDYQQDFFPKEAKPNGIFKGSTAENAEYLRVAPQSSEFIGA
pKi values by entry
pKi is defined as minus the log10 of a concentration measured in mol/L.

Illustrative cases are given below, each with its answer.
Molecule | pKi
CO[C@H]1CCN(c2nccc(Nc3cc4c(cn3)c(-c3nn(CCO)cc3C)cn4C(C)C)n2)C[C@H]1F | 7.71
COc1nc2cnc(Nc3ccnc(N4CCC(OC)CC4)n3)cc2n1C(C)C | 7.01

Query: Write down pKi measured for item Cc1nc2cnc(Nc3ccnc(N4CC[C@@H](O)C4)n3)cc2n1C(C)C
Response: 6.40

Query: Write down pKi measured for item Cc1cn[nH]c1-c1cn(C(C)C)c2cc(Nc3ccnc(N4CCC(O)C(C)(C)C4)n3)ncc12 (stereo not drawn)
Response: 7.69

Query: Write down pKi measured for item CC(C)n1c(CO)nc2cnc(Nc3ccnc(N4CCC(O)(C(F)(F)F)CC4)n3)cc21
Response: 6.63

Query: Write down pKi measured for item Cc1nc2cnc(Nc3ccnc(N4CC[C@H](C#N)C4)n3)cc2n1C(C)C
Response: 6.77

Query: Write down pKi measured for item Cc1nc2cnc(Nc3ccnc(N4CCC(O)C(F)(F)C4)n3)cc2n1C(C)C (racemic)
Response: 7.66

Query: Write down pKi measured for item COC1CCN(c2nccc(Nc3cc4c(cn3)c(-c3ccn(CC(N)=O)n3)cn4C(C)C)n2)CC1
Response: 8.50

Query: Write down pKi measured for item CCC(C)n1cc(C(=O)NC2CCOCC2)c2cnc(Nc3ccnc(N4CC[C@@H](OC)[C@@H](F)C4)n3)cc21 (single isomer, unassigned) [Example 375]
Response: 8.47
